assay: protein stability index of a GFP-peptide fusion (yeast GPS) (PSI 1-4); higher = more stable; sorted into four equal gates, so the index is relative within each strain; conditions: pdr5∆
// class assignment uses protein stability index with these ranges: band 1 = under 2, band 2 = from 2 up to 3, band 3 = 3 and over

DENGTNSAIANEQEEKS [RPC37] :: band 2
DMENMADEQKRSTDVWY [ARP7] :: band 2
AFGFVDRTLPHFSKDDY [RPO21] :: band 3
ITLRGVENIERVVMMKY [RPO21] :: band 2
TINKAVQVKVLGKYEFS [ESC2] :: band 1
KKASKVTVDADIDDILK [ISW2] :: band 3
SHFVSAVSTIASISLAI [RPP0] :: band 1
SEDVSRDHEKDTYRTLM [YIL149C/MLP2] :: band 3
PRVIEPVYTAQWSATWI [PRP8] :: band 2
VLVLHGDKDTRADIVRN [ISW2] :: band 3

INPUT: Could you tell me which band PGTITHGMFSSASVRAL [FAS1] belongs to?
OUTPUT: band 2

INPUT: Likewise for IIYPRSQTTLVQFGLNE [ARP9] ?
OUTPUT: band 1

INPUT: Likewise for DNSPSEDFMDIPKPRTA [SNF2] ?
OUTPUT: band 2

INPUT: Likewise for LETLFNRWHSESWANQL [FAS2] ?
OUTPUT: band 2

INPUT: Likewise for MVLVQDLLHPTAASEAR [RPS27A] ?
OUTPUT: band 3

INPUT: Likewise for AKLSDTLIIDQVRKDLG [NUT1] ?
OUTPUT: band 2

---

test: protein stability index of a GFP-peptide fusion (yeast GPS) (PSI 1-4); higher = more stable; sorted into four equal gates, so the index is relative within each strain; conditions: pdr5∆
Quick list: protein stability index per entry.
I only need the number, thanks.

Completed entries (count: 4):
IIESHLIQLQNIFKAEM [CSN9] :: 3.14
KKNNAASELANPYSSYV [YAR002W/NUP60] :: 3.02
DKQYRTAVATLLKELSK [SMC3] :: 2.13
HLGCVPIGEAGDFGGWF [RIP1] :: 3.08

INPUT: Returns the measured protein stability index for the input sequence. Input: AKTFGASVRIFLYPSNI [RPL33A]
OUTPUT: 2.65

INPUT: Likewise for IQRETLLPTNNGQPLNQ [GRR1] ?
OUTPUT: 2.91

INPUT: Likewise for IGFITSGTYHLNCGNGM [POP1] ?
OUTPUT: 2.93

---

assay: protein stability index of a GFP-peptide fusion (yeast GPS) (PSI 1-4); higher = more stable; sorted into four equal gates, so the index is relative within each strain; conditions: doa10∆
endpoint label: protein stability index

Completed entries (count: 6):
KVFDCGDNIVMSANGFA [PRE7] :: 2.88
VVSAVGEARNDIENKEE [YAR002W/NUP60] :: 2.92
SFFIASQLQEQFNKILP [FAS1] :: 2.69
SQAFDIVAALPISEKGL [RPP1] :: 2.85
EPENNTVIEGVKEESQP [SWI3] :: 3.21
YGPPGTGKTLLARACAA [RPT5] :: 2.5

INPUT: Returns the measured protein stability index for the input sequence. Input: KRCMDDLNPLKTLNLFK [RPO31]
OUTPUT: 2.98
